# test: PK assays
# Type: in vivo
# setup_conditions: in vivo
quantity_kind: half-life
The reply must contain the numeric value and, after it, the unit.

Inquiry: Recorded half-life of N=C(N)NCCCCCCN1CCC23c4c5ccc(O)c4O[C@H]2c2nc4ccccc4cc2C[C@@]3(O)C1C5 (stereo partly shown) , please.
Reply text: 120 min

====

# test: Microsomal stability
# setup_conditions: microsomes
quantity_kind: half-life

Inquiry: Recorded half-life of N=C(N)NCCCCCCN1CCC23c4c5ccc(O)c4O[C@H]2c2nc4ccccc4cc2C[C@@]3(O)C1C5 (stereo partly shown) [C6-Quino] , please.
Reply text: > 2 h
